biological target: hERG channel (Homo sapiens, UniProt Q12809); construct: expressed in transfected cells; host or cells: HEK293; assay: hERG channel inhibition, patch clamp on HEK293 cells expressing hERG; format: cell-based; settings: human, HEK293 cells expressing hERG, pH 7.4; 0.1 µM
Sequence (Q12809 whole entry): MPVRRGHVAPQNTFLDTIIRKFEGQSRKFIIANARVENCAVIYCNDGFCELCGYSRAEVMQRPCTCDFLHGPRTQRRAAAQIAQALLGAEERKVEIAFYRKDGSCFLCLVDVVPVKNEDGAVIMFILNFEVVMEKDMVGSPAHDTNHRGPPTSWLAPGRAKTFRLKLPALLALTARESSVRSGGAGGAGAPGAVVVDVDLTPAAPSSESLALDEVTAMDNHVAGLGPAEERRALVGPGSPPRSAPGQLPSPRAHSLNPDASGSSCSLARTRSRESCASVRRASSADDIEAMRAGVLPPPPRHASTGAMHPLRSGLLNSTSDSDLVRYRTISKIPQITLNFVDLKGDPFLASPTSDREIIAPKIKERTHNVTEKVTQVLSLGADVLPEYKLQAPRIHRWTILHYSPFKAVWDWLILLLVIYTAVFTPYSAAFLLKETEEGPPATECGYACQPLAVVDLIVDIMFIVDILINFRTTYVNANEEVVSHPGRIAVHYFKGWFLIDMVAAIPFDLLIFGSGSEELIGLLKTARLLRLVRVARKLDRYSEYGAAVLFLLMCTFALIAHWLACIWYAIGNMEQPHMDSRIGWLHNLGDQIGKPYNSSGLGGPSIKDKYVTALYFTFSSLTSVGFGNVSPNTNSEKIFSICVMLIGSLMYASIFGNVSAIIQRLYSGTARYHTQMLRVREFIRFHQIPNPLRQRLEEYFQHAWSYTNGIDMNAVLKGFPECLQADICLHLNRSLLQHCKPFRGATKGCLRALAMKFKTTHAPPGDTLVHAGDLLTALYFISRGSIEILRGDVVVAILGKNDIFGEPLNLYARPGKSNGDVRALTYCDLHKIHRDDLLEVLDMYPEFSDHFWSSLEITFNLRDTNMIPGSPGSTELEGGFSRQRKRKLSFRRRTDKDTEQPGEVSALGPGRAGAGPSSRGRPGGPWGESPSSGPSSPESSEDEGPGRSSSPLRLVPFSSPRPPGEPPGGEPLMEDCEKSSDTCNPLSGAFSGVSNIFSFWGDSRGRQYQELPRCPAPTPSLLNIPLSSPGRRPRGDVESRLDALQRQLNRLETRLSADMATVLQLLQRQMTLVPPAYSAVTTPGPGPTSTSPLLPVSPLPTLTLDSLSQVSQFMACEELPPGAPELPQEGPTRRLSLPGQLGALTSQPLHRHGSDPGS
Where a SMILES comes first, the peptide text is derived from it. [ ]: non-standard residue; d: D form. The star is where a group is joined. d(aIle) = CC[C@H](C)[C@@H](N)C(=O)O; X1 = CC[C@H](C)CCCCC(=O)*; dDab = NCC[C@@H](N)C(=O)O; Dab = NCC[C@H](N)C(=O)O
measured-attribute: inhibition at 0.1 µM
Phrase the answer as number then unit, nothing more needed.

Sure, the documented inhibition at 0.1 µM for CC[C@H](C)CCCCC(=O)NCC(=O)N[C@H](CCN)C(=O)NCC(=O)N[C@H](CO)C(=O)N[C@H](Cc1c[nH]c2ccccc12)C(=O)N[C@@H](CO)C(=O)N[C@@H](CCN)C(=O)N[C@H](CCN)C(=O)N[C@H](C(=O)N[C@@H](CCC(=O)O)C(=O)N[C@H](C(=O)N[C@@H](C(=O)N[C@@H](CO)C(=O)O)[C@@H](C)CC)[C@@H](C)CC)[C@@H](C)CC [Tridecaptin M, tridecaptin M] (X1-G[dDab]G[dS][dW]S[Dab][dDab]IEI[d(aIle)]S-OH) is -0.37%

* * *

test: in vitro; conditions: human, liver microsomes, pH 7.4
measured-attribute: remaining at 0.5 h (%)
Number only, in %; omit the unit.

Sure, the documented remaining at 0.5 h for O=C(O)Cc1ccccc1Nc1c(Cl)cccc1Cl [Diclofenac, reference compound] is 36.5

* * *

assay: in vivo; conditions: male, Sprague-Dawley, rat, plasma, iv, 5 mg/kg, Cmax, 5 mg/kg b.w.
Where a SMILES comes first, the peptide text is derived from it. [ ]: non-standard residue; d: D form. The star is where a group is joined. d(aIle) = CC[C@H](C)[C@@H](N)C(=O)O; X1 = CC[C@H](C)CCCCC(=O)*; dDab = NCC[C@@H](N)C(=O)O; Dab = NCC[C@H](N)C(=O)O
measured-attribute: Cmax (ng/mL)
Number only, in ng/mL; omit the unit.

Sure, the documented Cmax for CC[C@H](C)CCCCC(=O)NCC(=O)N[C@H](CCN)C(=O)NCC(=O)N[C@H](CO)C(=O)N[C@H](Cc1c[nH]c2ccccc12)C(=O)N[C@@H](CO)C(=O)N[C@@H](CCN)C(=O)N[C@H](CCN)C(=O)N[C@H](C(=O)N[C@@H](CCC(=O)O)C(=O)N[C@H](C(=O)N[C@@H](C(=O)N[C@@H](CO)C(=O)O)[C@@H](C)CC)[C@@H](C)CC)[C@@H](C)CC [Tridecaptin M, tridecaptin M] (X1-G[dDab]G[dS][dW]S[Dab][dDab]IEI[d(aIle)]S-OH) is 38500

* * *

target: CYP3A4 (Homo sapiens); assay: CYP inhibition assay, recombinant isoform, fluorescence; assay type: biochemical; conditions: human
Sequence (P08684 whole entry, canonical isoform): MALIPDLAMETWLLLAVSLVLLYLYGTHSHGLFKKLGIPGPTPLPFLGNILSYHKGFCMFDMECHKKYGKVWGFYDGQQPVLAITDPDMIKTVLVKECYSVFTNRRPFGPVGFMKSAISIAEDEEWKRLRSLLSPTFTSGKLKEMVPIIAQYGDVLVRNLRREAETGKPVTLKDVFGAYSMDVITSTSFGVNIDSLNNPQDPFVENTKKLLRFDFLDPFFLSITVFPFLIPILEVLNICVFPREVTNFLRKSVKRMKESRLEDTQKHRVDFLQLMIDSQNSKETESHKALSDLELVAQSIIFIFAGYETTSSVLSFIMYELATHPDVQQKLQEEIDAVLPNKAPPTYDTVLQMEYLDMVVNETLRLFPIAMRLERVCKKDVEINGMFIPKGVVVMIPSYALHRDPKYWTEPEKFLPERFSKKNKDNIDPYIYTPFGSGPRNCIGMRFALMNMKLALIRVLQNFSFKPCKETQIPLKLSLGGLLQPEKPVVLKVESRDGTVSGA
Where a SMILES comes first, the peptide text is derived from it. [ ]: non-standard residue; d: D form. The star is where a group is joined. d(aIle) = CC[C@H](C)[C@@H](N)C(=O)O; X1 = CC[C@H](C)CCCCC(=O)*; dDab = NCC[C@@H](N)C(=O)O; Dab = NCC[C@H](N)C(=O)O
measured-attribute: inhibition at 25 min, 0.1 µM

Sure, the documented inhibition at 25 min, 0.1 µM for CC[C@H](C)CCCCC(=O)NCC(=O)N[C@H](CCN)C(=O)NCC(=O)N[C@H](CO)C(=O)N[C@H](Cc1c[nH]c2ccccc12)C(=O)N[C@@H](CO)C(=O)N[C@@H](CCN)C(=O)N[C@H](CCN)C(=O)N[C@H](C(=O)N[C@@H](CCC(=O)O)C(=O)N[C@H](C(=O)N[C@@H](C(=O)N[C@@H](CO)C(=O)O)[C@@H](C)CC)[C@@H](C)CC)[C@@H](C)CC [Tridecaptin M, tridecaptin M] (X1-G[dDab]G[dS][dW]S[Dab][dDab]IEI[d(aIle)]S-OH) is < 0%

* * *

experiment: in vitro; details: rat, liver microsomes, pH 7.4
measured-attribute: microsomal CLint

Sure, the documented microsomal CLint for O=C(O)Cc1ccccc1Nc1c(Cl)cccc1Cl [Diclofenac, reference compound] is < 11.6 µL/min/mg

* * *

molecular target: CYP2C9 (Homo sapiens); test: CYP inhibition assay, recombinant isoform, fluorescence; type: biochemical; conditions: human
Sequence (P11712 whole entry, canonical isoform): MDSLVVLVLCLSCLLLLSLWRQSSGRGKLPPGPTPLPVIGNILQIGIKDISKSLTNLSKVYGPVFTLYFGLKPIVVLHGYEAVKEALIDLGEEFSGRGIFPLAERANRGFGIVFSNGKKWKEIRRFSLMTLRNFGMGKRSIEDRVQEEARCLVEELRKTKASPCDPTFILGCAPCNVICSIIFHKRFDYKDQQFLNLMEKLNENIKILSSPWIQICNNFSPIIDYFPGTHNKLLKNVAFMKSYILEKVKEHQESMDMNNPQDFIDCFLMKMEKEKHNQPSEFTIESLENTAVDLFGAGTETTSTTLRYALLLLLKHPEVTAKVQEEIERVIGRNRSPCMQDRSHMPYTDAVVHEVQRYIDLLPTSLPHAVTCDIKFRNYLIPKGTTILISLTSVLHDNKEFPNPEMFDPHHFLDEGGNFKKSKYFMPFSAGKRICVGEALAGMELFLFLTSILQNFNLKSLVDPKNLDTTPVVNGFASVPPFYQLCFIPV
Where a SMILES comes first, the peptide text is derived from it. [ ]: non-standard residue; d: D form. The star is where a group is joined. d(aIle) = CC[C@H](C)[C@@H](N)C(=O)O; X1 = CC[C@H](C)CCCCC(=O)*; dDab = NCC[C@@H](N)C(=O)O; Dab = NCC[C@H](N)C(=O)O
measured-attribute: inhibition at 25 min, 10 µM (%)
Number only, in %; omit the unit.

Result for CC[C@H](C)CCCCC(=O)NCC(=O)N[C@H](CCN)C(=O)NCC(=O)N[C@H](CO)C(=O)N[C@H](Cc1c[nH]c2ccccc12)C(=O)N[C@@H](CO)C(=O)N[C@@H](CCN)C(=O)N[C@H](CCN)C(=O)N[C@H](C(=O)N[C@@H](CCC(=O)O)C(=O)N[C@H](C(=O)N[C@@H](C(=O)N[C@@H](CO)C(=O)O)[C@@H](C)CC)[C@@H](C)CC)[C@@H](C)CC [Tridecaptin M, tridecaptin M] (X1-G[dDab]G[dS][dW]S[Dab][dDab]IEI[d(aIle)]S-OH) , tested on CYP2C9 (Homo sapiens), inhibition at 25 min, 10 µM: 0.82

* * *

biological target: hERG channel (Homo sapiens, UniProt Q12809); construct: expressed in transfected cells; host or cells: HEK293; assay: hERG channel inhibition, patch clamp on HEK293 cells expressing hERG; type: cell-based; settings: human, HEK293 cells expressing hERG, pH 7.4; 3 µM
Where a SMILES comes first, the peptide text is derived from it. [ ]: non-standard residue; d: D form. The star is where a group is joined. d(aIle) = CC[C@H](C)[C@@H](N)C(=O)O; X1 = CC[C@H](C)CCCCC(=O)*; dDab = NCC[C@@H](N)C(=O)O; Dab = NCC[C@H](N)C(=O)O
measured-attribute: inhibition at 3 µM (%)
Number only, in %; omit the unit.

Sure, the documented inhibition at 3 µM for CC[C@H](C)CCCCC(=O)NCC(=O)N[C@H](CCN)C(=O)NCC(=O)N[C@H](CO)C(=O)N[C@H](Cc1c[nH]c2ccccc12)C(=O)N[C@@H](CO)C(=O)N[C@@H](CCN)C(=O)N[C@H](CCN)C(=O)N[C@H](C(=O)N[C@@H](CCC(=O)O)C(=O)N[C@H](C(=O)N[C@@H](C(=O)N[C@@H](CO)C(=O)O)[C@@H](C)CC)[C@@H](C)CC)[C@@H](C)CC [Tridecaptin M, tridecaptin M] (X1-G[dDab]G[dS][dW]S[Dab][dDab]IEI[d(aIle)]S-OH) is -4.07

* * *

assay: in vitro; conditions: rat, microsomes, pH 7.4
Where a SMILES comes first, the peptide text is derived from it. [ ]: non-standard residue; d: D form. The star is where a group is joined. d(aIle) = CC[C@H](C)[C@@H](N)C(=O)O; X1 = CC[C@H](C)CCCCC(=O)*; dDab = NCC[C@@H](N)C(=O)O; Dab = NCC[C@H](N)C(=O)O
measured-attribute: remaining at 0.5 h (%)
Number only, in %; omit the unit.

Sure, the documented remaining at 0.5 h for CC[C@H](C)CCCCC(=O)NCC(=O)N[C@H](CCN)C(=O)NCC(=O)N[C@H](CO)C(=O)N[C@H](Cc1c[nH]c2ccccc12)C(=O)N[C@@H](CO)C(=O)N[C@@H](CCN)C(=O)N[C@H](CCN)C(=O)N[C@H](C(=O)N[C@@H](CCC(=O)O)C(=O)N[C@H](C(=O)N[C@@H](C(=O)N[C@@H](CO)C(=O)O)[C@@H](C)CC)[C@@H](C)CC)[C@@H](C)CC [Tridecaptin M, tridecaptin M] (X1-G[dDab]G[dS][dW]S[Dab][dDab]IEI[d(aIle)]S-OH) is 76.5

* * *

biological target: CYP2D6 (Homo sapiens); experiment: CYP inhibition assay, recombinant isoform, fluorescence; type: biochemical; details: human
Sequence (P10635 whole entry, canonical isoform): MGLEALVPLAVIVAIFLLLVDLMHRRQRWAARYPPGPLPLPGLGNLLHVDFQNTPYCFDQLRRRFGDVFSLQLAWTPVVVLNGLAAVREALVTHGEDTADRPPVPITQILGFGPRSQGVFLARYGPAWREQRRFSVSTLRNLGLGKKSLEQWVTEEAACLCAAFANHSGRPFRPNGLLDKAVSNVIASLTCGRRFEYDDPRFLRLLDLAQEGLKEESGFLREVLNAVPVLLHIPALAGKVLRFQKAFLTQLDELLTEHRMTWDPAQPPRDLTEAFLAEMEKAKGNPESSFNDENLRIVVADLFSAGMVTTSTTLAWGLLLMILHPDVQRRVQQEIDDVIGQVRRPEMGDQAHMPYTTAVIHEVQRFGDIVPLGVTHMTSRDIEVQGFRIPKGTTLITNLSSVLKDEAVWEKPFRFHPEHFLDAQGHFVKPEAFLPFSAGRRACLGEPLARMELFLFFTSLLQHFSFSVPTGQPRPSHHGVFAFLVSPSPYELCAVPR
Where a SMILES comes first, the peptide text is derived from it. [ ]: non-standard residue; d: D form. The star is where a group is joined. d(aIle) = CC[C@H](C)[C@@H](N)C(=O)O; X1 = CC[C@H](C)CCCCC(=O)*; dDab = NCC[C@@H](N)C(=O)O; Dab = NCC[C@H](N)C(=O)O
measured-attribute: inhibition at 25 min, 3 µM (%)
Number only, in %; omit the unit.

Sure, the documented inhibition at 25 min, 3 µM for CC[C@H](C)CCCCC(=O)NCC(=O)N[C@H](CCN)C(=O)NCC(=O)N[C@H](CO)C(=O)N[C@H](Cc1c[nH]c2ccccc12)C(=O)N[C@@H](CO)C(=O)N[C@@H](CCN)C(=O)N[C@H](CCN)C(=O)N[C@H](C(=O)N[C@@H](CCC(=O)O)C(=O)N[C@H](C(=O)N[C@@H](C(=O)N[C@@H](CO)C(=O)O)[C@@H](C)CC)[C@@H](C)CC)[C@@H](C)CC [Tridecaptin M, tridecaptin M] (X1-G[dDab]G[dS][dW]S[Dab][dDab]IEI[d(aIle)]S-OH) is 1.28
